- PROTOCOL_DETAILS: PK and biodistribution in BALB/c mice
- Assay type: in vivo
- EXPERIMENTAL_PARAMETERS: BALB/c, mouse, plasma, ip, 50 mg/kg, plasma, single dose 50 mg/kg i.p.; read-out: t1/2
QUANTITY: half-life (h)
Your answer should be a plain number; it is taken to be in h.

Summary for this compound, CCCCc1cn(-c2ccc(NC(=O)Nc3ccccc3C(F)(F)F)cc2)nn1 [BA103] : half-life is 4.99

* * *

- PROTOCOL_DETAILS: PK and biodistribution in BALB/c mice
- Type: in vivo
- EXPERIMENTAL_PARAMETERS: BALB/c, mouse, ip; plasma, single dose 50 mg/kg i.p.; read-out: AUC 0-inf_obs (converted)
QUANTITY: AUC(0-inf)
Report as: number unit

Summary for this compound, CCCCc1cn(-c2ccc(NC(=O)Nc3ccccc3C(F)(F)F)cc2)nn1 [BA103] : AUC(0-inf) is 30800 ng·h/mL
